The values you see were collected from the domain aggregation screens of Martell et al. (2025).

- procedure.summary: soluble fraction after stress (log2 fold change); higher = more stays soluble; pooled small domains, quantitative proteomics
- assay.context: stress: pH 4
property.measured: soluble fraction (log2)

{"biosequence": "HMQAGPEDIIRAKLKTAMPEAQIISIRPTPAGLYQVNAKGYESVFVTADGRYLFQGDLLEIQGDRIVNL", "readout.value": -0.714}
{"biosequence": "HMFQEGLVAPPAYTRPESFRGWEVPEILRSGNFPAIAKWQHEESLRLTRERRPAMLEAYERRT", "readout.value": -0.415}
{"biosequence": "HMSLPALALRQADSLAFKQVIYHDRVVPFNTLARDFVLKLTGKPSYGGMTPEQVVGGWLLRPEVWQNEPM", "readout.value": 0.00403}
{"biosequence": "HMDFSERLARAMSLAGYTQGRLAKEVGMAQSSVNKLLNGANGSRKTVEIASVLGVRPEWLSTGAGEML", "readout.value": 0.0512}
{"biosequence": "HMSSDEEQLATLTRLLQKQEQIIQTLGPRNPMVSLQQYANTITKVIEMAGFKDTSQFINSQIP", "readout.value": -0.0429}
{"biosequence": "HMTDSLELADLLRRAIITGEYKPRERLVEMELAQKYSVSRTPVREALKHLEALGLVKMERYKGAMVAD", "readout.value": -0.573}
{"biosequence": "HMQRSVKNNDTVQVHYTGKLTNGQIFDSSIDKQPLEFQLGQGQIIPGFEKGLIDMTVSEKKTITIPEAEAY", "readout.value": 0.133}
{"biosequence": "HMSGEPKNERQIEVPDVTKKSIREANNILTSEGLRLRIEGTGLAVSQKPAAGTMVEPDTIITVTFQAP", "readout.value": -0.0704}
